Test system: SNB-19 CNS
Assay: NCI-60 one-dose screen, 48 h (100 = growth as untreated, 0 = no growth, -100 = all killed)
Settings: 10 µM unless noted
Compounds without any hit were thinned out: in the full panel of roughly 83,000, 20% have a hit.
parameter: growth (%)
Numbers only here, please. The scale is %.

// worked examples, growth included
O=C1CSC(c2ccccc2O)N1c1nnc(Cn2ccnc2)o1 (stereo not given)	86.3
COc1cnc2c(c1)C(=O)c1c-2n(CCCNC2=NCCS2)c(=O)c2cc(F)ccc12	54.6
Cc1cnc2nc(-c3ccc(N(C)C)cc3)cn2c1	107
O=C(CN1CCN(c2ccc(Cl)cc2)CC1)N1CCN(c2nnc(-c3ccc(Cl)cc3)c(-c3ccc(Cl)cc3)n2)CC1	78

Need growth, item `COc1cccc(C=Nc2cc(C(C)C)c(O)cc2C)c1O` 93.2
